system: Trypanosoma brucei; assay: Ratio of Kinact to Ki of Trypanosoma brucei rhodesain
Answer each item with its documented log10 Ratio.
For clarity, the numbers are log10 values of Ratio expressed in M⁻¹ s⁻¹.

Here's what some known entries look like.
>>> observedmeasurement("Cc1cccc(C[C@H](NC(=O)c2cc(F)cc(F)c2)C(=O)N[C@H](/C=C/S(=O)(=O)c2ccccc2)CCc2ccccc2)c1")
5.66
>>> observedmeasurement("Cc1ccc(C[C@H](NC(=O)c2ccc3c(c2)OCCO3)C(=O)N[C@H](/C=C/S(=O)(=O)c2ccccc2)CCc2ccccc2)cc1")
6.20
>>> observedmeasurement("O=C(N[C@@H](Cc1cccc(C(F)(F)F)c1)C(=O)N[C@H](/C=C/S(=O)(=O)c1ccccc1)CCc1ccccc1)c1ccccn1")
3.78
>>> observedmeasurement("Cc1cccc(C[C@H](NC(=O)c2ccc(C(F)(F)F)cc2)C(=O)N[C@H](/C=C/S(=O)(=O)c2ccccc2)CCc2ccccc2)c1")
5.06

For each entry beneath this line, provide reported log10 Ratio.
1. Cc1cccc(C[C@H](NC(=O)c2ccc3c(c2)OCCO3)C(=O)N[C@H](/C=C/S(=O)(=O)c2ccccc2)CCc2ccccc2)c1
2. Cc1cccc(C[C@H](NC(=O)c2ccccn2)C(=O)N[C@H](/C=C/S(=O)(=O)c2ccccc2)CCc2ccccc2)c1
3. O=C(N[C@@H](Cc1ccccc1)C(=O)N[C@H](/C=C/S(=O)(=O)c1ccccc1)CCc1ccccc1)c1ccccn1

[reply]
[5.40, 5.24, 5.18]
